Answer each item with its documented growth inhibition.
Experiment: NCI Yeast Anticancer Drug Screen. Data for the mlh1 strain (AID 171);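 further: 0% = growth of vehicle-treated control cultures of the same strain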
Details: S. cerevisiae mlh1 strain growth inhibition; at 3.7 µM; hits give high values
This is part of a sample that, as a whole, favours compounds with a hit. Of some 79,000 tested, about 15% had one in any assay.
One number for each entry, in %.

Need growth inhibition for each of these molecules.
1. O=[N+]([O-])CC(SCc1ccccc1)c1ccc2c(c1)OCO2 (stereo unspecified)
2. Cn1c(=O)c2ccccc2c2ccccc21
3. C/C(=N/NC(=S)N1CCCCCC1)c1cccc(/C(C)=N\NC(=S)N2CCCCCC2)n1
4. CCCc1cc(C(=O)OCC)cc(CCC)c1O
5. O=C1C=CC(=O)c2c(O)c(Nc3ccc(OC(F)(F)F)cc3)c(Cl)c(O)c21
6. CCCCCCCCCCCCCCC(C(=O)[O-])[n+]1ccccc1 (stereo unspecified)

1. 48
2. -5
3. -9
4. -4
5. 6
6. -3
